Each recorded value in this set is attributed to ChEMBL document CHEMBL2073748.

assayedSystem: OCTN2 (organic cation/carnitine transporter 2) (Homo sapiens, UniProt O76082)
Sequence (O76082 whole entry): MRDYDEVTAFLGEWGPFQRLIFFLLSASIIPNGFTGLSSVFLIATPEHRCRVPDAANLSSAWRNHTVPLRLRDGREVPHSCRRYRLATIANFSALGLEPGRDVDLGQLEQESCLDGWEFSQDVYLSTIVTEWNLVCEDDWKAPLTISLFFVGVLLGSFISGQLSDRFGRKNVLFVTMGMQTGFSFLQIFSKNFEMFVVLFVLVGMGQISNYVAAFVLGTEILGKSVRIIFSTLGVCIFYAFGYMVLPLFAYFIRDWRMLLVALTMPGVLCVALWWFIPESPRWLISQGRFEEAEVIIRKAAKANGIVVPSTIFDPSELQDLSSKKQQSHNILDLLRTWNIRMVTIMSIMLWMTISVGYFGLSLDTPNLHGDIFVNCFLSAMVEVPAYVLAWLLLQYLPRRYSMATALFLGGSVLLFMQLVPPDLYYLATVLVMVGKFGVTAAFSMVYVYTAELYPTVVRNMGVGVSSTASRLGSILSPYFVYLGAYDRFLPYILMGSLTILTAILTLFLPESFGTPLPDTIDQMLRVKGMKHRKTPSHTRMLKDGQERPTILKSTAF
runDescription: TP_TRANSPORTER: inhibition of Carnitine uptake (Carnitine: 0.010? uM, Corticosterone: 500 uM) in OCTN2-expressing HEK293 cells
Type: functional, cell-based
Parameters: scale not given: the % may be the effect or the level left
testContext: HEK293 cells that express OCTN2, probe Carnitine, read-out: Activity
experimentalEndpoint: activity at 500 µM

Need activity at 500 µM of C[C@]12C[C@H](O)[C@H]3[C@@H](CCC4=CC(=O)CC[C@@]43C)[C@@H]1CC[C@@H]2C(=O)CO , thanks.
9.3%
